tested system: T1, ROR1 naturally expressed on human tumor cell lines (A549, Jeko-1, SW620, PA-1) (human, UniProt Q01973 30-937)
T1 construct: whole, on cells; also called cells expressing ROR1
T1 sequence (Q01973 30-937): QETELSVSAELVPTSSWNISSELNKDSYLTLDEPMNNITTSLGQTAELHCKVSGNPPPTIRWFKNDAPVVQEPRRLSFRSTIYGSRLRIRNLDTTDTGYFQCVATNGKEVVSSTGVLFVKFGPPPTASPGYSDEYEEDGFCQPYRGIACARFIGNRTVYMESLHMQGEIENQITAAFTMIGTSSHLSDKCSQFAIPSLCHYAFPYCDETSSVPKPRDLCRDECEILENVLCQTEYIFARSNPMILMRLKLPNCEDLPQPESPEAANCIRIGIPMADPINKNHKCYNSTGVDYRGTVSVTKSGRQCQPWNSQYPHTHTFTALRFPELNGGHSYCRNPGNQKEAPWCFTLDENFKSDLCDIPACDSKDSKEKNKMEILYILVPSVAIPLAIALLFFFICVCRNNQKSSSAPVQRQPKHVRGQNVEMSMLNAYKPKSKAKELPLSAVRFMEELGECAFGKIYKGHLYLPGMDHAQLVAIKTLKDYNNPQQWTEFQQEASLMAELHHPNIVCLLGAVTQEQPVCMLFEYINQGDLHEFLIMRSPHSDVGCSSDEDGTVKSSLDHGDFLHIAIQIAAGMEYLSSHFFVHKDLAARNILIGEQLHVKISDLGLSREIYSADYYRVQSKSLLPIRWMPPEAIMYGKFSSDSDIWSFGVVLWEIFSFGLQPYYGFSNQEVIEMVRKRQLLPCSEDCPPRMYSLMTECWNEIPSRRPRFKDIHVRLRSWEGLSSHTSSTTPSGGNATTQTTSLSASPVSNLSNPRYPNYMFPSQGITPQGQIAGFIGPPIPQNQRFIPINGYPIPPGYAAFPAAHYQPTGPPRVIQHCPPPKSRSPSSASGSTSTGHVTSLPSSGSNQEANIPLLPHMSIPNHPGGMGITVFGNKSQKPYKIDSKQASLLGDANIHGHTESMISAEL
method: FACS on PA-1 cells naturally expressing ROR1
Listed binders paired with reported Top (MFI)
Kindly answer with a numeric value in MFI, unit omitted.

Study these solved cases before continuing.
hz135A2B10-1.2 (antibody, human IgG1, kappa, V domains shown, Humanized, human IgG1/kappa) VH: QVQLVESGGGLVQPGGSLRLSCAASGFAFSTYGMAWVRQAPGKGLEWVASIHKGGFSTYYPDNVKGRFTISRDNDKNSLYLQMNSLRAEDTAVYYCIRHDWDGAMDYWGQGTLVTVSS VL: DIQMTQSPSSLSASVGDRVTITCKASQDINSYLNWYQQKPGKAPKTLIYRANRLVDGVPSRFSGSGSGQDYTLTISSLQPEDFATYYCLQFDEFPYTFGQGTKVEIKR; 238000
hz135A2B10-1.3 (antibody, human IgG1, kappa, V domains shown, Humanized, human IgG1/kappa) VH: QVQLVESGGGLVQPGGSLRLSCAASGFAFSTYGMAWVRQAPGKRLEWVASIHKGGFSTYYPDNVKGRFTISRDNDKNSLYLQMNSLRAEDTAVYYCIRHDWDGAMDYWGQGTLVTVSS VL: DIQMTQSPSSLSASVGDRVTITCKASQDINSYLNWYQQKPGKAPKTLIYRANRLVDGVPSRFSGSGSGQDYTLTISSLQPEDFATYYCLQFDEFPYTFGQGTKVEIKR; 249000
hz135A2B10-1.1 (antibody, human IgG1, kappa, V domains shown, Humanized, human IgG1/kappa) VH: QVQLVESGGGLVQPGGSLRLSCAASGFAFSTYGMAWVRQAPGKGLEWVASIHKGGFSTYYPDNVKGRFTISRDNAKNSLYLQMNSLRAEDTAVYYCARHDWDGAMDYWGQGTLVTVSS VL: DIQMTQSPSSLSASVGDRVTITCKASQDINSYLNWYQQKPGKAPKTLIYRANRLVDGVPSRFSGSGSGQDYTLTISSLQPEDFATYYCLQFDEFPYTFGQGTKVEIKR; 250000

Asked: Record request: Top (MFI) value, item UC-961 (antibody, V domains shown) VH: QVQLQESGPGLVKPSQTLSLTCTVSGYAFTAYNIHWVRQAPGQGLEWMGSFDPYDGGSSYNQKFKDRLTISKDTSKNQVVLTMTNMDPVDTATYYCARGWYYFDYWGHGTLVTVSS VL: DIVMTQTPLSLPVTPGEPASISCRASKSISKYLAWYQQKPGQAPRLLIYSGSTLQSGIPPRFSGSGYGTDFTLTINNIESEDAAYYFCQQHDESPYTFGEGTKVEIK
Given back: 232000
